Every entry's value here was drawn from patent USRE47150.

target-of-assay: T1, human tissue factor pathway inhibitor (TFPI) (human, UniProt P10646 29-304, limits assumed)
T1 construct: bought; also called hTFPI; human TFPI
T1 sequence (looked up): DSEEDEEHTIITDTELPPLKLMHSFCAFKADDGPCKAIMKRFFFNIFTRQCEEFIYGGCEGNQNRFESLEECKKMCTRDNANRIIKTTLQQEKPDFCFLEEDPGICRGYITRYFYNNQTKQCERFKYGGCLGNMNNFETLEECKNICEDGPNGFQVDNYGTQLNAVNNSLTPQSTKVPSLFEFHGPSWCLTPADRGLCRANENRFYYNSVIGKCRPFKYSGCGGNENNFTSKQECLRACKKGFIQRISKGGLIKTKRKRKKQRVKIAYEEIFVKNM
test: SPR, TFPI immobilized
quantity: koff (s⁻¹)
Please state the figure in s⁻¹; there is no need to write the unit.

Ask: Return the recorded koff value; entry: 2A8-g200 (HC Q1E+R30S+S35D+S55R+S56G+K99L/LC D1S+I2Y+A13S+S21T+R28P+N29K+Y48F+N51V+E80M+S89A+D91W+D92S+G93S+V94T) (Fab, V domains shown) VH: EVQLVESGGGLVQPGGSLRLSCAASGFTFSSYGMDWVRQAPGKGLEWVSSIRGSRGSTYYADSVKGRFTISRDNSKNTLYLQMNSLRAEDTAVYYCARLYRYWFDYWGQGTLVTVSS VL: SYELTQPPSVSVSPGQTARITCSGDNLPKYYAHWYQQKPGQAPVVVIFYDVNRPSGIPERFSGSNSGNTATLTISGTQAMDEADYYCQAWWSSTPVFGGGTKLTVLG
Reply: 3.61e-05
